Value source: patent US11059855B2

ASSAY DETAILS: Circular dichroism secondary structure (Dichroweb), with POPC
Format: physicochemical
TEST SETTINGS: 95 °C
No end group written: not given here.
MEASURED PARAMETER: Peptide-POPC, Strand
Just so you know, I need the unit written after the number.

Dear colleague, I am looking for the recorded Peptide-POPC, Strand of the following substance: H-GLADLAKLLLKLLGW-NH2 [Peptide 7F3]
4%

Name the reported Peptide-POPC, Strand value associated with the substance GLLDDAKLLAKLAGW-AMIDE (GLLDDAKLLAKLAGW-NH2) [Peptide 7D12]
24%

Quick one: Peptide-POPC, Strand for H-GLDDLLKALLKAAGW-NH2 [Peptide 4H9] ?
11%

Record request: Peptide-POPC, Strand value, item H-GLLDLLKLLLKLAGW-NH2 [Peptide 28H6]
3%
